The reported numbers originate from patent US9018383B2.

Target: human Edg-2 receptor (Homo sapiens, UniProt Q92633)
Sequence (Q92633 whole entry): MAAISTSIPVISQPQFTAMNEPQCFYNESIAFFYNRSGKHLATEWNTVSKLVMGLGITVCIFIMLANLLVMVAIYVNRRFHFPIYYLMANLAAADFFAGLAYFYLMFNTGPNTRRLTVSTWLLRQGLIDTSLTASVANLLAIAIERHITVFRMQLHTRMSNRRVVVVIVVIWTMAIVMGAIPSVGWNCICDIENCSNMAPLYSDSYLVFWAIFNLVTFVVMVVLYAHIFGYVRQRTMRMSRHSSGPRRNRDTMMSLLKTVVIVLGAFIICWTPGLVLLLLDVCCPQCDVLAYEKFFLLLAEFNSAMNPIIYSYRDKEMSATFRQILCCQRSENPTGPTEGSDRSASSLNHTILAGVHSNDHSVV
Test: Determination of Edg-2 receptor inhibition by FLIPR measurements (LPA-mediated calcium liberation)
Format: cell-based
Settings: CHO cells overexpressing human Edg-2 receptor, LPA 100 nM, fluo-4 calcium fluorescence; read-out: Inhibitory concentrations IC50 for inhibition of the Edg-2 receptor
MEASURED_QUANTITY: IC50

1. CC[C@H]1CC[C@](NC(=O)c2ccc(CCS(C)(=O)=O)c(OCCc3cccc(C)c3)c2)(C(=O)O)CC1 [Example 462] ... 0.1 to 1 µM
2. CC[C@H]1CC[C@](NC(=O)c2ccc(OCCO)c(OCCc3cccc(Cl)c3)c2)(C(=O)O)CC1 [Example 419] ... < 0.1 µM
3. COCCOc1ccc(C(=O)N[C@]2(C(=O)O)CC[C@H](C)CC2)cc1OCCc1cccc(C)c1 [Example 118] ... 1 to 30 µM
4. CC[C@H]1CC[C@@](NC(=O)c2ccc(OC)c(-c3ccc(OC)c(Cl)c3)c2)(C(=O)O)CC1 [Example 352] ... < 0.1 µM
5. COc1ccc(C(=O)NC2(C(=O)O)CCCCCC2)cc1OCCc1cc(Cl)ccc1F [Example 3] ... < 0.1 µM

* * *

We begin with a simple list: items and their reported pIC50.
Molecular target: human Edg-2 receptor (Homo sapiens)
Assay: Determination of Edg-2 receptor inhibition by FLIPR measurements (LPA-mediated calcium liberation)
Conditions: CHO cells overexpressing human Edg-2 receptor, LPA 100 nM, fluo-4 calcium fluorescence; read-out: Inhibitory concentrations IC50 for inhibition of the Edg-2 receptor
pIC50: −log10 of the molar value.
MEASURED_QUANTITY: pIC50

1. COc1cccc(CCOc2cc(C(=O)NC3(C(=O)O)CCCCCC3)ccc2OC)c1 ... > 7.00
2. COc1ccc(C(=O)NC2(C(=O)O)CCCCCC2)cc1OCCc1ccccc1C ... 6.00 to 7.00
3. COc1ccc(C(=O)NC2(C(=O)O)CCCCCC2)cc1-c1cccc(C#N)c1 ... 4.52 to 6.00
4. COc1ccc(C(=O)N[C@]2(C(=O)O)CC[C@H](C(F)(F)F)CC2)cc1OCCc1cccc(C2COC2)c1 ... 6.00 to 7.00
5. COc1ccc(C(=O)N[C@]2(C(=O)O)CC[C@@H](C)CC2)cc1-c1cccc(C(F)(F)F)c1 ... 6.00 to 7.00
6. COc1ccc(C(=O)NC2(C(=O)O)CCC3CC3CC2)cc1OCCc1cccc(C)c1 (stereo not shown) ... > 7.00
7. COc1ncc(C(=O)NC2(C(=O)O)CCCCCC2)cc1OCCc1ccccc1 ... > 7.00
8. COc1ncc(C(=O)N[C@]2(C(=O)O)CC[C@H](C)CC2)cc1-c1cccc(Cl)c1Cl ... > 7.00
9. COc1ccc(C(=O)NC2(C(=O)O)CCCCCC2)cc1OCC(C)c1ccccc1 (stereo not shown) ... > 7.00
10. COc1ccc(C(=O)N[C@]2(C(=O)O)CC[C@@H](C)CC2)cc1-c1cccc(OC(F)(F)F)c1 ... 4.52 to 6.00

* * *

Target: human Edg-2 receptor (Homo sapiens, UniProt Q92633)
Experiment: Determination of Edg-2 receptor inhibition by FLIPR measurements (LPA-mediated calcium liberation)
Conditions: CHO cells overexpressing human Edg-2 receptor, LPA 100 nM, fluo-4 calcium fluorescence; read-out: Inhibitory concentrations IC50 for inhibition of the Edg-2 receptor
Catalogue of IC50 readings, one per entry.
MEASURED_QUANTITY: IC50

1. COc1ccc(C(=O)NC2(C(=O)O)CCSCC2)cc1OCCc1cccc(C)c1 ... 100 to 1000 nM
2. COc1ncc(C(=O)N[C@]2(C(=O)O)CC[C@H](C(F)(F)F)CC2)cc1-c1cccc(OC(F)(F)F)c1 ... < 100 nM
3. C=CC1CC1(NC(=O)c1ccc(OC)c(OCCc2cccc(C)c2)c1)C(=O)O (centres unmarked) ... 100 to 1000 nM
4. COc1ccc(C(=O)NC2(C(=O)O)CC3CCC(C3)C2)cc1OCCc1cccc(C)c1 (centres unmarked) [Example 47] ... < 100 nM
5. COc1ncc(C(=O)NC2(C(=O)O)CCCCCC2)cc1-c1cccc(OC(F)(F)F)c1 ... < 100 nM
6. COCCOc1ccc(C(=O)N[C@]2(C(=O)O)CC[C@@H](C)CC2)cc1OCCc1cccc(Cl)c1 ... 100 to 1000 nM
7. COc1ccc(C(=O)NC2(C(=O)O)CCOCC2)cc1OCCc1cccc(C)c1 ... 1000 to 30000 nM
8. COc1ccc(C(=O)NC2(C(=O)O)CCC(=O)CC2)cc1OCCc1cccc(C)c1 ... 100 to 1000 nM
9. COc1ncc(C(=O)N[C@]2(C(=O)O)CC[C@@H](C)CC2)cc1OCCc1cccc(CCO)c1 ... < 100 nM
10. CC[C@H]1CC[C@](NC(=O)c2cc3c(c(-c4ccc(OC)c(Cl)c4)c2)OC(F)(F)O3)(C(=O)O)CC1 ... < 100 nM
11. COc1ccc(C(=O)N[C@]2(C(=O)O)CC[C@@H](C)CC2)cc1-c1c(F)cc(OC)c(Cl)c1F ... < 100 nM
12. COc1ncc(C(=O)NC2(C(=O)O)CCCCCC2)cc1OCCc1cc(C)ccc1C ... 1000 to 30000 nM
13. CC[C@H]1CC[C@](NC(=O)c2ccc(C=O)c(-c3cccc(C(F)(F)F)c3)c2)(C(=O)O)CC1 ... < 100 nM
14. COc1ccc(C(=O)NC2(C(=O)O)CCC(C(C)C)CC2)cc1OCCc1cccc(C)c1 (centres unmarked) [Example 370] ... < 100 nM
15. CC[C@H]1CC[C@@](NC(=O)c2ccc(OC)c(-c3cccc(OC(F)(F)F)c3)c2)(C(=O)O)CC1 ... 100 to 1000 nM
16. CC[C@H]1CC[C@](NC(=O)c2cc(F)c(OCCO)c(-c3cccc(OC(F)(F)F)c3)c2)(C(=O)O)CC1 ... < 100 nM
17. COc1ncc(C(=O)NC2(C(=O)O)CCCCCC2)cc1-c1cc(Cl)cc(C(F)(F)F)c1 ... < 100 nM
18. COc1ccc(C(=O)NC2(C(=O)O)CCC(C(C)C)CC2)cc1OCCc1cccc(C)c1 (centres unmarked) [Example 29] ... < 100 nM
19. COc1ccc(C(=O)NC2(C(=O)O)C[C@H]3CC[C@]2(C)C3(C)C)cc1OCCc1cccc(C)c1 (some centres unmarked) ... 1000 to 30000 nM
20. CC[C@H]1CC[C@](NC(=O)c2ccc(OC)c(-c3ccc(OC)c(Cl)c3)c2)(C(=O)O)CC1 ... < 100 nM
21. O=C(NC1(C(=O)O)CCCCCC1)c1ccc(OCCO)c(OCCc2ccccc2)c1 ... 100 to 1000 nM
22. COc1ccc(C(=O)NC2(C(=O)O)CCCCCC2)cc1OCCc1ccccc1F ... < 100 nM
23. CC[C@H]1CC[C@](NC(=O)c2ccc(OC)c(-c3cccc(C4COC4)c3)c2)(C(=O)O)CC1 ... < 100 nM
